- tested on: Recombinant human c-KIT kinase (Homo sapiens (Human))
- Sequence (P10721 26-976): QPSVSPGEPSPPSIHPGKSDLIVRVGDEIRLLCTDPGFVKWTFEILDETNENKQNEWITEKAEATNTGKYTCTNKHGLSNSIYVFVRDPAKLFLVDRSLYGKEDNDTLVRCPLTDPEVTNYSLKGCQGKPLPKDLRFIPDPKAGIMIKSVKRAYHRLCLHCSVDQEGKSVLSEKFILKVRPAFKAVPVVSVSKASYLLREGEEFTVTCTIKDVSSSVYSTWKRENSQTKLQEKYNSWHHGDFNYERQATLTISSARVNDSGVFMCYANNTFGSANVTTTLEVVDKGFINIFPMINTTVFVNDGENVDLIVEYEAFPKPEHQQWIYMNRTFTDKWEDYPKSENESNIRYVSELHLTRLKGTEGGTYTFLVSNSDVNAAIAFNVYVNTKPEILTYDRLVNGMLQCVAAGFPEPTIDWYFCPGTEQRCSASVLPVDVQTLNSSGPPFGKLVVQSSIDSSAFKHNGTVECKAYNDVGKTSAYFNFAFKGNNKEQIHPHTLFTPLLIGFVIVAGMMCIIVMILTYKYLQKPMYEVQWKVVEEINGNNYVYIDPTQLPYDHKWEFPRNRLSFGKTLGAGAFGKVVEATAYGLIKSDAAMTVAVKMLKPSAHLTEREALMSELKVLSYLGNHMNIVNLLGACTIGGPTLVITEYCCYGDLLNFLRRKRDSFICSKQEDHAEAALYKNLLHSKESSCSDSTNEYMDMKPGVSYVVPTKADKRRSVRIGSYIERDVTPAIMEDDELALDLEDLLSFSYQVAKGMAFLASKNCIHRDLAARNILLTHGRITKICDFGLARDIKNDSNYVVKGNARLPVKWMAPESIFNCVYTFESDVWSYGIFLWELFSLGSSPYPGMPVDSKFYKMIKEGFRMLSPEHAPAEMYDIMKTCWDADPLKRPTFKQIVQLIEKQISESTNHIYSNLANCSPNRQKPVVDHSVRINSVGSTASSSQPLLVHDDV
- test protocol: c-KIT kinase chemiluminescence assay (ADP-Glo)
- particulars: ATP 50 μM
Assign IC50 to each entry below.

INSERT INTO measurements (molecule, measurement_name, experimental_result) VALUES
  ('Cc1ncc(-c2noc([C@H]3C[C@H](C(F)(F)F)C3)n2)cc1NC(=O)c1cnn2ccc(N3CC4(COC4)C3)cc12 [Example 281-66]', 'IC50', '100 to 1000 nM'),
  ('Cc1ccc(-c2noc([C@H]3C[C@@H]3F)n2)cc1NC(=O)c1cnn2ccc(N3CC4(CCN(CC(F)(F)F)C4)C3)cc12 [Example 188]', 'IC50', '100 to 1000 nM'),
  ('Cc1ccc(-c2ncc(C(F)F)cn2)cc1NC(=O)c1cnn2ccc(N3CC4(COC4)C3)cc12 [Example 344]', 'IC50', '100 to 1000 nM'),
  ('CC(=O)Nc1nc(C)c(-c2ccn3ncc(C(=O)Nc4cc(-c5noc([C@H]6C[C@@H]6F)n5)ccc4C)c3c2)c(C)n1 [Example 171-31]', 'IC50', '100 to 1000 nM'),
  ('Cc1ncc(-c2noc([C@H]3C[C@@H]3F)n2)cc1NC(=O)c1cnn2ccc(N3CC4(C3)CC(O)(C(F)F)C4)cc12 [Example 281-63]', 'IC50', '100 to 1000 nM');

Go through the items and report each one's IC50.
1. Cc1ccc(-c2ncc(OC(F)(F)F)cn2)cc1NC(=O)c1cnn2ccc(N3CC4(C3)CC(O)(C(F)F)C4)cc12 [Example 315]
2. Cc1ccc(-c2noc([C@H]3C[C@@H]3F)n2)cc1NC(=O)c1cnn2ccc(-c3c(C)nc(Cl)nc3C)cc12 [Example 171-8]
3. Cc1ccc(-c2noc([C@H]3C[C@@H](OC(F)(F)F)C3)n2)cc1NC(=O)c1cnn2ccc(N3CC4(CN(CC(F)(F)F)C4)C3)cc12 [Example 244]
4. Cc1ccc(-c2noc([C@H]3C[C@@H]3F)n2)cc1NC(=O)c1cnn2ccc(-c3c(C)nn(CC(C)(C)O)c3C)cc12 [Example 152]
5. Cc1ccc(-c2noc([C@H]3C[C@@H]3F)n2)cc1NC(=O)c1cnc(-c2ccc3[nH]nc(C)c3c2)o1 [Example 308-21]
6. Cc1ccc(-c2noc([C@H]3C[C@@H]3F)n2)cc1NC(=O)c1cnn2ccc(N3CC4(C3)CS(=O)(=O)C4)cc12 [Example 187]

OUT:
< 100 nM
100 to 1000 nM
< 100 nM
< 100 nM
< 100 nM
< 100 nM

----------
- System: M-07e cells
- test protocol: M-07e cellular assay (SCF-mediated cell proliferation)
- Format: cell-based
- particulars: Homo sapiens, 72 hours, CellTiter Glo
Assign EC50 to each entry below.

Record excerpt, results attached:
INSERT INTO measurements (smiles_record, measurement_name, experimental_result) VALUES
  ('Cc1ccc(-c2noc([C@H]3C[C@@H]3F)n2)cc1NC(=O)c1cnn2ccc(-c3ccn(C(F)F)n3)cc12', 'EC50', '100 to 1000 nM'),
  ('Cc1ncc(-c2ncc(C(C)C)cn2)cc1NC(=O)c1cnn2ccc(N3CC4(C3)CC(O)(C(F)F)C4)cc12', 'EC50', '< 100 nM'),
  ('Cc1ccc(-c2noc([C@H]3C[C@@H]3F)n2)cc1NC(=O)c1cnc(-c2ccccc2)o1', 'EC50', '100 to 1000 nM'),
  ('Cc1nnc(N2CC(c3nc(-c4cnc(C)c(NC(=O)c5cnn6ccc(N7CC8(C7)CC(O)(C(F)F)C8)cc56)c4)no3)C2)o1', 'EC50', '> 1000 nM'),
  ('Cc1ccc(-c2noc([C@H]3C[C@@H]3F)n2)cc1NC(=O)c1cnn2ccc(-c3c(C)n[nH]c3C)cc12', 'EC50', '< 100 nM');

Go through the items and report each one's EC50.
1. Cc1ccc(-c2noc(C3CN(C(=O)OCc4ccccc4)C3)n2)cc1NC(=O)c1cnc(-c2ccc3c(c2)CC(=O)N3)o1
2. CN[C@H]1CCN(c2ccn3ncc(C(=O)Nc4cc(-c5noc([C@H]6C[C@@H]6F)n5)ccc4C)c3c2)C1
3. Cc1ccc(-c2noc(C34COC(C)(C3)C4)n2)cc1NC(=O)c1cnn2ccc(N3CC4(COC4)C3)cc12
4. Cc1ccc(-c2noc([C@H]3C[C@@H]3F)n2)cc1NC(=O)c1cnn2cc(F)c(-c3c(C)nn(CC(C)(C)O)c3C)cc12
5. Cc1ccc(-c2noc([C@H]3C[C@@H]3F)n2)cc1NC(=O)c1cnc(-c2ccc3[nH]ccc3c2)o1
6. Cc1ccc(-c2noc([C@H]3C[C@@H]3F)n2)cc1NC(=O)c1cnc(-c2ccc(N3CC4(COC4)C3)cc2)o1

OUT:
["> 1000 nM", "100 to 1000 nM", "< 100 nM", "100 to 1000 nM", "< 100 nM", "100 to 1000 nM"]

----------
Assign IC50 to each entry below.
- tested on: Recombinant human c-KIT kinase (Homo sapiens (Human))
- test protocol: c-KIT kinase chemiluminescence assay (ADP-Glo)
- particulars: ATP 50 μM

Record excerpt, results attached:
INSERT INTO assay_data (molecule, measurement_name, experimental_result) VALUES
  ('Cc1ccc(-c2noc([C@H]3C[C@@H]3F)n2)cc1NC(=O)c1cnn2ccc(N3CCC4(C3)CC4(F)F)cc12 (stereo partly shown) [Example 216]', 'IC50', '< 100 nM'),
  ('Cc1ncc(-c2noc([C@H]3CC34CC4)n2)cc1NC(=O)c1cnn2ccc(N3CC4(C3)CC(O)(C(F)F)C4)cc12 [Example 281-16]', 'IC50', '< 100 nM'),
  ('Cc1ncc(-c2nnn(C)n2)cc1NC(=O)c1cnn2ccc(N3CC4(C3)CC(O)(C(F)F)C4)cc12 [Example 312-2]', 'IC50', '100 to 1000 nM');

Shift focus to the following entry.
IN: Name the recorded IC50 for Cc1ccc(-c2noc([C@H]3C[C@@H]3F)n2)cc1NC(=O)c1cnn2ccc(N3CC(F)(C(F)(F)F)C3)cc12 [Example 223] .
OUT: 100 to 1000 nM

----------
- System: M-07e cells
- test protocol: M-07e cellular assay (SCF-mediated cell proliferation)
- Type: cell-based
- particulars: Homo sapiens, 72 hours, CellTiter Glo
pEC50: −log10 of the molar value.
measurement name: pEC50

INSERT INTO results (smiles_record, measurement_name, experimental_result) VALUES
  ('Cc1ccc(-c2noc(C3CN(CC(F)(F)F)C3)n2)cc1NC(=O)c1cnn2ccc(N3CC4(C3)CC(O)(C(F)F)C4)cc12', 'pEC50', '> 7.00'),
  ('Cc1ccc(-c2noc([C@H]3C[C@@H]3F)n2)cc1NC(=O)c1cnn2ccc(N3CCN(CC(F)(F)F)[C@H](C)C3)cc12', 'pEC50', '> 7.00'),
  ('Cc1ccc(-c2noc(N3CC(O)(C(F)(F)F)C3)n2)cc1NC(=O)c1cnn2ccc(N3CC4(COC4)C3)cc12', 'pEC50', '> 7.00'),
  ('Cc1ccc(-c2noc([C@H]3C[C@@H]3F)n2)cc1NC(=O)c1cnc(C)n1C', 'pEC50', '< 6.00');

Go through the items and report each one's pEC50.
1. Cc1ccc(-c2noc([C@H]3C[C@@H]3F)n2)cc1NC(=O)c1cnn2ccc(N3CCC4(COC4)C3)cc12
2. Cc1ccc(-c2noc([C@H]3C[C@@H](OC(F)F)C3)n2)cc1NC(=O)c1cnn2ccc(N3CC4(CCN(CC(F)(F)F)C4)C3)cc12
3. Cc1ccc(-c2noc(C3CN(C(=O)N4CC(F)(F)C4)C3)n2)cc1NC(=O)c1cnn2ccc(N3CC4(COC4)C3)cc12
4. Cc1ccc(-c2noc([C@H]3C[C@@H]3F)n2)cc1NC(=O)c1cnc(-c2cnc3[nH]ccc3c2)o1
5. Cc1ccc(-c2noc([C@H]3C[C@@H]3F)n2)cc1NC(=O)c1cnn2ccc(-c3cnc(N4CC(F)(F)C4)cc3C)cc12
6. Cc1ccc(-c2noc([C@H]3C[C@@H](OC(F)F)C3(C)C)n2)cc1NC(=O)c1cnn2ccc(N3CC4(CCN(CC(F)(F)F)C4)C3)cc12
7. Cc1ccc(-c2noc([C@H]3C[C@@H]3F)n2)cc1NC(=O)c1cnc(-c2cccc3[nH]c(=O)[nH]c23)o1

OUT:
["> 7.00", "6.00 to 7.00", "6.00 to 7.00", "> 7.00", "> 7.00", "6.00 to 7.00", "< 6.00"]

Go through the items and report each one's pEC50.
1. Cc1ccc(-c2noc([C@H]3C[C@@H](OC(F)(F)F)C3)n2)cc1NC(=O)c1cnn2ccc(N3CC4(CNC4)C3)cc12
2. CC(=O)Nc1ccc(-c2ncc(C(=O)Nc3cc(-c4noc([C@H]5C[C@@H]5F)n4)ccc3C)o2)cn1

OUT:
6.00 to 7.00
6.00 to 7.00
